Test system: style-specific S RNase of Fuji apple
measurementNotes: Inhibition of the activity of a style-specific S RNase by the agents
Type: biochemical
testContext: optical density at 260 nm (A260), agent 2.0 mM, no treatment 1.10
experimentalReadout: OD (2.0 mM)

Cc1ccc(S(=O)(=O)[O-])cc1.Cc1ccc(S(=O)(=O)[O-])cc1.[Zn+2] [Zn(II) p-toluene sulfonate] = 0.72
O=S(=O)([O-])[O-].[Cu+2] [CuSO4, reference compound] = 0.70
COCC(=O)[O-].COCC(=O)[O-].[Cu+2] [Cu(II) methoxyacetate] = 0.72
C=CC(=O)[O-].C=CC(=O)[O-].[Cu+2] [Cu(II) Acrylate] = 0.69
CCCC(=O)[O-].CCCC(=O)[O-].[Cu+2] [Cu(II) Butyrate] = 0.69
CCCC(=O)[O-].CCCC(=O)[O-].[Zn+2] [Zn(II) Butyrate] = 0.68
COCCOCCOc1ccc(S(=O)(=O)[O-])cc1.COCCOCCOc1ccc(S(=O)(=O)[O-])cc1.[Zn+2] = 0.68
C[C@H](O)C(=O)[O-].C[C@H](O)C(=O)[O-].[Cu+2] [Cu(II) L-lactate] = 0.72
COCCOCCOCCOCC(=O)[O-].COCCOCCOCCOCC(=O)[O-].[Zn+2] = 0.67
